Source: patent US10363239B2

# Test system: mu opiate receptor (MOR)
# assay.summary: MOR agonist activity using [35S]GTPγS binding assay in striatal membranes
# Assay type: biochemical
# measurement.setup: 1 μM compound + 1 μM β-funaltrexamine
# Procedure: To assess the mu opiate receptor (MOR) agonist activity of positive compounds from the FLNA screening, compounds were tested in a [^35S]GTPγS binding assay using striatal membranes. […] The immunocomplexes so formed were collected by incubation at 25° C. for 30 minutes with 40 μl of agarose-conjugated protein A/G beads and centrifugation at 5,000×g at 4° C. for 5 minutes. […] The radioactivity in the suspension was determined by liquid scintillation spectrometry.
Quick rule: MOR agonist activity ([35S]GTPγS binding), FLNA-Binding Compound as Agonist 1 μM + BFNA of at least 20% means Yes, below that means No.

compound: CC1CCC(C(C)C)C(OCC(O)CN2CCc3ccccc32)C1 (centres unmarked)
category: Yes
--
compound: CC1CCC(C(C)C)C(OCC(O)Cn2ccc3ccccc32)C1 (centres unmarked)
category: Yes
--
compound: CC1CCC(C(C)C)C(OCC(O)CN2CCN(CCc3ccccc3)CC2)C1 (centres unmarked)
category: Yes
--
compound: CC1CCC(C(C)C)C(OCC(O)CN2CCCCC2)C1 (centres unmarked)
category: Yes
--
compound: CC1CCC(C(C)C)C(OCC(O)CN2CCSCC2)C1 (centres unmarked)
category: No

###

# Test system: mu opiate receptor (MOR)
# assay.summary: MOR agonist activity using [35S]GTPγS binding assay in striatal membranes
# Format: biochemical
# measurement.setup: Series C-1; 0.1 μM compound, relative to DAMGO
Entries and their % DAMGO (0.1 μM) values follow.

compound: O=S(=O)(c1cccs1)N1CCC2(CC1)OCCN2S(=O)(=O)c1cccs1 [Compound C0141M]
unit.info: %
% DAMGO (0.1 μM): 109.9

compound: COc1ccc(S(=O)(=O)N2CCC3(OCCN3S(=O)(=O)c3ccc(OC)cc3)C3CCCCC32)cc1 (centres unmarked) [Compound C0144M]
unit.info: %
% DAMGO (0.1 μM): 108.3

compound: CC(=O)c1ccc(S(=O)(=O)N2CCC3(CC2)OC(CN(C)C)CN3S(=O)(=O)c2ccc(C(C)=O)cc2)cc1 (centres unmarked)
unit.info: %
% DAMGO (0.1 μM): 127.0

compound: O=S(=O)(c1ccc(Br)cc1F)N1CCC2(CC1)OCCN2S(=O)(=O)c1ccc(Br)cc1F
unit.info: %
% DAMGO (0.1 μM): 82.4

compound: NS(=O)(=O)c1ccc(S(=O)(=O)N2CCC3(CC2)OCCN3S(=O)(=O)c2ccc(S(N)(=O)=O)cc2)cc1
unit.info: %
% DAMGO (0.1 μM): 61.3

###

Entries and their % DAMGO (1 μM) values follow.
# Test system: mu opiate receptor (MOR)
# assay.summary: MOR agonist activity using [35S]GTPγS binding assay in striatal membranes
# Type: biochemical
# measurement.setup: 1 μM compound relative to DAMGO

molecule: CC1CCC(C(C)C)C(OCC(O)CN2CCCCCC2)C1 (centres unmarked)
measurement.target: mu opiate receptor (MOR)
% DAMGO (1 μM) / %: 63.6
--
molecule: CC1CN(CC(O)COC2CCCCC2)CC(C)O1 (centres unmarked)
measurement.target: mu opiate receptor (MOR)
% DAMGO (1 μM) / %: 100.4
--
molecule: CCN(CC)CC(O)COC1CC(C)CCC1C(C)C (centres unmarked)
measurement.target: mu opiate receptor (MOR)
% DAMGO (1 μM) / %: 93.4
--
molecule: COc1ccc(OCC(O)Cn2ccc3ccccc32)cc1 (centres unmarked)
measurement.target: mu opiate receptor (MOR)
% DAMGO (1 μM) / %: 132.3
--
molecule: COc1ccc(OCC(O)CN2CCc3cc4c(c(OC)c3C2)OCO4)cc1 (centres unmarked)
measurement.target: mu opiate receptor (MOR)
% DAMGO (1 μM) / %: 88.9
